TESTED_ON: EGFR Del (PC9) (Homo sapiens, UniProt P00533, DEL746-750)
Construct: endogenous in cells
Sequence (P00533 with tags, fused parts or gaps DEL746-750): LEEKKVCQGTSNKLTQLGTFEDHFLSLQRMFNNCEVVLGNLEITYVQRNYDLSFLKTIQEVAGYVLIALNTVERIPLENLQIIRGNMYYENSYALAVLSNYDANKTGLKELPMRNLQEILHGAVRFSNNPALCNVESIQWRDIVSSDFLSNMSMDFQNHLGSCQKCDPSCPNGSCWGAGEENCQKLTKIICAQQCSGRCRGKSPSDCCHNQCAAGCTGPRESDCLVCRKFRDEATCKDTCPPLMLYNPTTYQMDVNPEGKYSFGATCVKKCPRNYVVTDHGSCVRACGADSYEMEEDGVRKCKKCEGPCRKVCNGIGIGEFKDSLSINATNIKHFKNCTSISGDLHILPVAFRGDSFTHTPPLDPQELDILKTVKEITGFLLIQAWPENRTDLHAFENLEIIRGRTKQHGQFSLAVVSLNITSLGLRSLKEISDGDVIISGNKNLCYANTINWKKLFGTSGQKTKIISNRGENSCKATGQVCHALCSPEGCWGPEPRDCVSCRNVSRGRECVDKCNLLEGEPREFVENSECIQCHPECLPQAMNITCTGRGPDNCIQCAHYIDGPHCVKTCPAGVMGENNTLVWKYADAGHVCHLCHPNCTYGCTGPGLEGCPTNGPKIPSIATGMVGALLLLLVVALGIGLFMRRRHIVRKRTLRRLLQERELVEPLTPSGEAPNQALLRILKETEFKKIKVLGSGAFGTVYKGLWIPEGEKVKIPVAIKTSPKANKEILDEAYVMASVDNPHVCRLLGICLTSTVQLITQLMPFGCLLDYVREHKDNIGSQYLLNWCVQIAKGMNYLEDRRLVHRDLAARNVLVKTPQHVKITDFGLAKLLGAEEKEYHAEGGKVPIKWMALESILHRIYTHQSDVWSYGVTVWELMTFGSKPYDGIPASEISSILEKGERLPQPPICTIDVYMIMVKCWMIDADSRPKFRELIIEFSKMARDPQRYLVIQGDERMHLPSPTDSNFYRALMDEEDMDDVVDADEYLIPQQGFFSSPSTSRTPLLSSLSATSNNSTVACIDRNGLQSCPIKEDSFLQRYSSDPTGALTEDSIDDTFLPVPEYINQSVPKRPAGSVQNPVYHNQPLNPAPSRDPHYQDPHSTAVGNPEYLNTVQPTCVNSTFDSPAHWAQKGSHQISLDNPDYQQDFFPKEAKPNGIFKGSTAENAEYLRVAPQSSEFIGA
METHOD_SUMMARY: EGFR ELISA, PC9 Del cells;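 further: cellular EGFR autophosphorylation at Tyr1068 quantified by sandwich ELISA of cell lysates after 2 h compound exposure at 37 °C, 11-point threefold dilution series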
CONDITION_CONTEXT: read-out: EGFR_ELISA9E PC9 Del IC50
EXPERIMENTAL_ENDPOINT: IC50 (nM)
Answers are plain numbers, in nM.

Please look at the items below and tell me IC50 for each one, in order.
1. C=CC(=O)N1C[C@H](COc2nc(Nc3cnn(CC)n3)nc3[nH]cc(Cl)c23)[C@@H](OC)C1
2. C=CC(=O)N(C)[C@H]1C[C@H](Oc2nc(Nc3cnn(C)c3)nc3[nH]cc(-c4cnn(C)c4)c23)C1
3. C=CC(=O)N[C@H]1C[C@@](C)(Oc2nc(Nc3cnn(C)c3)nc3[nH]cc(Cl)c23)C1
4. C=CC(=O)N1CC[C@@H](Nc2nc(Nc3cnn(C)c3)nc3[nH]cc(Cl)c23)C1
5. C=CC(=O)N(C)[C@@H]1CCCN(c2nc(Nc3cnn(C)c3)nc3[nH]cc(Cl)c23)C1

## Output
[141, 8570, 465, 342, 4430]

====

For each entry below, report its pIC50 value.
TESTED_ON: EGFR wildtype, endogenous (Homo sapiens, UniProt P00533)
Construct: A549 (EGFR wildtype, endogenous)
Sequence (P00533 25-1210): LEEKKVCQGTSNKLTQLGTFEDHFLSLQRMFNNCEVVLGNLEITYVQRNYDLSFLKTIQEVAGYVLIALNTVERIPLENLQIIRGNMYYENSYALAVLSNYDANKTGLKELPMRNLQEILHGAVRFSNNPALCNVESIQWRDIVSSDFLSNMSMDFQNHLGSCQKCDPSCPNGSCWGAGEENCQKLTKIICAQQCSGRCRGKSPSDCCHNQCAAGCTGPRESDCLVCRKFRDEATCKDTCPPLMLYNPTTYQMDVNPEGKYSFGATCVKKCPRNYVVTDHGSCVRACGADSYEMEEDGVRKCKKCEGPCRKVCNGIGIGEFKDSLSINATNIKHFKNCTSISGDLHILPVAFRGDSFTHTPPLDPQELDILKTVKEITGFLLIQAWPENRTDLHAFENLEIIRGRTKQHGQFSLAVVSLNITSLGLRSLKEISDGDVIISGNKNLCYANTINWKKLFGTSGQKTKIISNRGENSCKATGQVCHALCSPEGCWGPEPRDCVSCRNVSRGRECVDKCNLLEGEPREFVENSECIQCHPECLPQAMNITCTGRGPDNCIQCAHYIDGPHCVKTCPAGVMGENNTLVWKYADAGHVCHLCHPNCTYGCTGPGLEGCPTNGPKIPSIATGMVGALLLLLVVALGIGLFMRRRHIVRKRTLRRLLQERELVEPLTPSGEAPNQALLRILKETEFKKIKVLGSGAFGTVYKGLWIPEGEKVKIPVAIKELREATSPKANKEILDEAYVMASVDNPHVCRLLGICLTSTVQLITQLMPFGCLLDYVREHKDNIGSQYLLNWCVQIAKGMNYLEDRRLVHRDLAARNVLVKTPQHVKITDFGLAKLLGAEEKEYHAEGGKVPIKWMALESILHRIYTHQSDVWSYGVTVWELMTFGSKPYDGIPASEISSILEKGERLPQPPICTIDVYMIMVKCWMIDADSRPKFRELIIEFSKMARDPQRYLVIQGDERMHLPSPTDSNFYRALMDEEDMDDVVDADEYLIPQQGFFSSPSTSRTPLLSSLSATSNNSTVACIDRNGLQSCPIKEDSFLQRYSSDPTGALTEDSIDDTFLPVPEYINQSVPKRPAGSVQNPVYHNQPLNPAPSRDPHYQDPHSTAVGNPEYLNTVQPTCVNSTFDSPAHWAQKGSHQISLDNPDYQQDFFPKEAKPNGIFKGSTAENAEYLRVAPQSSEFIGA
METHOD_SUMMARY: pEGFR Y1068 ELISA assay, A549 cells;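 further: sandwich ELISA of phospho-EGFR Tyr1068 in cell lysates, cells exposed to compound for 2 h before EGF stimulation, 11-point threefold dilution series run in duplicate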
CONDITION_CONTEXT: full serum media, stimulated 10 min with EGF (40 ng/mL), read-out: pEGFRY1068 ELISAA549 IC50
pIC50: −log10 of the molar value.

Example entries and their recorded answers appear below.
[
  {
    "MOLECULAR_STRING": "C=CC(=O)Nc1cccc(Oc2nc(Nc3cn(C)nc3C(F)(F)F)nc3[nH]ccc23)c1",
    "RECORDED_VALUE": 5.87
  },
  {
    "MOLECULAR_STRING": "C=CC(=O)Nc1cccc(Oc2nc(Nc3cc(CC)nn3C)nc3[nH]ccc23)c1",
    "RECORDED_VALUE": "< 5.00"
  },
  {
    "MOLECULAR_STRING": "C=CC(=O)Nc1cccc(Oc2nc(Nc3cnn(C)c3)nc3[nH]cnc23)c1",
    "RECORDED_VALUE": "< 5.00"
  }
]

--- query ---
## Input Fill in pIC50 for record C=CC(=O)Nc1cccc(Oc2nc(Nc3cc(OCCN(C)C)nn3C)nc3[nH]ccc23)c1F
## Output < 5.00

====

TESTED_ON: EGFR L858R, endogenous (Homo sapiens, UniProt P00533, L858R)
Construct: NCI-H3255 (EGFR L858R, endogenous); endogenous in cells; host or cells: NCI-H3255
Sequence (P00533 25-1210 L858R): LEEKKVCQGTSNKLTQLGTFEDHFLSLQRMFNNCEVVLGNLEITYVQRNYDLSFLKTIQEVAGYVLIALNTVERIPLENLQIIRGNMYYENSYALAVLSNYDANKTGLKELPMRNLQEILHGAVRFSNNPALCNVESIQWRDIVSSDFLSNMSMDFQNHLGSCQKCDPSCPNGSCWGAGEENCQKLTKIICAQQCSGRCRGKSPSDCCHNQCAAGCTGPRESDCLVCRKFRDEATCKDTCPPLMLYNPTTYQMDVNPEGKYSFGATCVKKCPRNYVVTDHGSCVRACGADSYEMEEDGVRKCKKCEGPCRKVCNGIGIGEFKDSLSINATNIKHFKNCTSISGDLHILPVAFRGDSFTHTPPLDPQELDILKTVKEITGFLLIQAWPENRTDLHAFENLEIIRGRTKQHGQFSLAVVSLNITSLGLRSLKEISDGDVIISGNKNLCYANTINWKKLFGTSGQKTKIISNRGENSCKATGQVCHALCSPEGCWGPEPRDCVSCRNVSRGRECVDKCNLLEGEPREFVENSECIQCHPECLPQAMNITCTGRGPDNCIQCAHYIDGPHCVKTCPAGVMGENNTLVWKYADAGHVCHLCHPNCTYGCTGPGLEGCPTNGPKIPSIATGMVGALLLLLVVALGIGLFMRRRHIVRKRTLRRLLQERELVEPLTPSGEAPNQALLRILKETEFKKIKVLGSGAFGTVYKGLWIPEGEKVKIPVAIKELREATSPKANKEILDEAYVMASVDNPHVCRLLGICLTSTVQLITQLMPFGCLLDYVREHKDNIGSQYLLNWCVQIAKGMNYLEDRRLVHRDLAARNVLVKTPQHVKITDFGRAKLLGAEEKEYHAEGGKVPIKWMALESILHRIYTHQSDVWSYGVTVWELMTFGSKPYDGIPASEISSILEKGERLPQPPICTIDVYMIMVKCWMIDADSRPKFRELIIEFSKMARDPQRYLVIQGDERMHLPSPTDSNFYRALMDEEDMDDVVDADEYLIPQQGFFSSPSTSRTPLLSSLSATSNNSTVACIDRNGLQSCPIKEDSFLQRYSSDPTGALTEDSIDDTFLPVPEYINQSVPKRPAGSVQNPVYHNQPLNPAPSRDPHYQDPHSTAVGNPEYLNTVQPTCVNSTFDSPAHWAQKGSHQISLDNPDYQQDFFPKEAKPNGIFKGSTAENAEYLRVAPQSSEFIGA
METHOD_SUMMARY: pEGFR Y1068 ELISA assay, NCI-H3255 cells
Assay type: cell-based
CONDITION_CONTEXT: value marked (H3255): NCI-H3255 cells, 2 hrs compound treatment; read-out: pEGFRY1068 ELISA3T3 L858R IC50 (nM), (H3255)
For each entry below, report its log10 IC50 value.
Response schema: value (number) is log10 of IC50 in units of nM.

Example entries and their recorded answers appear below.
[
  {
    "COMPOUND": "C=CC(=O)N1C[C@H](COc2nc(Nc3cn(CC#N)nc3C)nc3[nH]cc(Cl)c23)[C@@H](OC)C1",
    "log10 IC50": 1.93
  },
  {
    "COMPOUND": "C=CC(=O)N(C)[C@H]1C[C@H](Oc2nc(Nc3cnn(CC#N)c3)nc3[nH]cc(Cl)c23)C1",
    "log10 IC50": 2.03
  },
  {
    "COMPOUND": "C=CC(=O)N(C)[C@H]1C[C@H](Oc2nc(Nc3cnn(C)c3)nc3[nH]cc(-c4ccn(C)n4)c23)C1",
    "log10 IC50": 2.68
  },
  {
    "COMPOUND": "C=CC(=O)N1C[C@@H]2CN(c3nc(Nc4cnn(C)c4)nc4[nH]cc(Cl)c34)C[C@]2(O)C1",
    "log10 IC50": 3.04
  },
  {
    "COMPOUND": "C=CC(=O)N(C)[C@@H]1CCCN(c2nc(Nc3cnn(C)c3)nc3[nH]cc(Cl)c23)C1",
    "log10 IC50": 2.78
  }
]

Please look at the items below and tell me log10 IC50 for each one, in order.
1. C=CC(=O)N(C)[C@H]1C[C@H](Oc2nc(Nc3cn(C)nc3C#N)nc3[nH]cc(Cl)c23)C1
2. C=CC(=O)N1CC[C@@H](Nc2nc(Nc3cnn(C)c3)nc3[nH]cc(Cl)c23)C1
3. C=CC(=O)N(C)[C@H]1C[C@H](Nc2nc(Nc3cn(C)nc3C)nc3[nH]cc(Cl)c23)C1
4. C=CC(=O)N1C[C@H](COc2nc(Nc3cnn(CC#N)c3)nc3[nH]cc(Cl)c23)[C@@H](OC)C1
5. C=CC(=O)N(C)[C@H]1C[C@H](Oc2nc(Nc3cnn(C)c3)nc3[nH]cc(-c4ccccn4)c23)C1
6. C=CC(=O)N[C@H]1C[C@H](Oc2nc(Nc3cnn(C)c3)nc3[nH]cc(-c4ccccn4)c23)C1

## Output
1. 2.44
2. 2.00
3. 2.14
4. 1.41
5. 1.52
6. 2.89

Please look at the items below and tell me log10 IC50 for each one, in order.
1. C=CC(=O)N(C)[C@H]1C[C@H](Oc2nc(Nc3cnn(C)c3)nc3[nH]cc(-c4cnn(C)c4)c23)C1
2. C=CC(=O)N1C[C@H](Nc2nc(Nc3cnn(C)c3)nc3[nH]cc(Cl)c23)[C@@H](C(F)F)C1
3. C=CC(=O)N(C)[C@H]1C[C@H](Oc2nc(Nc3cnn(C)c3)nc3[nH]cc(-c4cccnc4)c23)C1
4. C=CC(=O)N1C[C@H](Nc2nc(Nc3cnn(C)c3)nc3[nH]cc(Cl)c23)[C@@H](C(F)(F)F)C1
5. C=CC(=O)N1C[C@H](Nc2nc(Nc3cnn(C)c3)nc3[nH]cc(Cl)c23)[C@H](n2ccnn2)C1

## Output
1: 3.39; 2: 1.79; 3: 1.68; 4: 1.63; 5: 2.99

Please look at the items below and tell me log10 IC50 for each one, in order.
1. C=CC(=O)N1CCOC2(CCN(c3nc(Nc4cnn(C)c4)nc4[nH]cc(Cl)c34)C2)C1 (single isomer, unassigned)
2. C=CC(=O)N1CC(Nc2nc(Nc3cnn(C)c3)nc3[nH]cc(Cl)c23)C1
3. C=CC(=O)N1C[C@@H]2CN(c3nc(Nc4cnn(C)c4)nc4[nH]cc(Cl)c34)C[C@]2(OC)C1 (single isomer, unassigned)

## Output
2.38
2.89
1.61

Please look at the items below and tell me log10 IC50 for each one, in order.
1. C=CC(=O)N1C[C@H](COc2nc(Nc3cnn(CC(C)O)c3)nc3[nH]cc(Cl)c23)[C@@H](OC)C1 (single isomer, unassigned)
2. C=CC(=O)N[C@]1(C)C[C@H](Oc2nc(Nc3cnn(C)c3)nc3[nH]cc(Cl)c23)C1
3. C=CC(=O)N1C[C@@H](F)[C@H](Nc2nc(Nc3cnn(C)c3)nc3[nH]cc(Cl)c23)C1 (single isomer, unassigned)

## Output
1: 2.00; 2: 2.82; 3: 1.49

====

TESTED_ON: EGFR L858R+T790M (Homo sapiens, UniProt P00533, L858R/T790M)
Sequence (P00533 25-1210 T790M/L858R): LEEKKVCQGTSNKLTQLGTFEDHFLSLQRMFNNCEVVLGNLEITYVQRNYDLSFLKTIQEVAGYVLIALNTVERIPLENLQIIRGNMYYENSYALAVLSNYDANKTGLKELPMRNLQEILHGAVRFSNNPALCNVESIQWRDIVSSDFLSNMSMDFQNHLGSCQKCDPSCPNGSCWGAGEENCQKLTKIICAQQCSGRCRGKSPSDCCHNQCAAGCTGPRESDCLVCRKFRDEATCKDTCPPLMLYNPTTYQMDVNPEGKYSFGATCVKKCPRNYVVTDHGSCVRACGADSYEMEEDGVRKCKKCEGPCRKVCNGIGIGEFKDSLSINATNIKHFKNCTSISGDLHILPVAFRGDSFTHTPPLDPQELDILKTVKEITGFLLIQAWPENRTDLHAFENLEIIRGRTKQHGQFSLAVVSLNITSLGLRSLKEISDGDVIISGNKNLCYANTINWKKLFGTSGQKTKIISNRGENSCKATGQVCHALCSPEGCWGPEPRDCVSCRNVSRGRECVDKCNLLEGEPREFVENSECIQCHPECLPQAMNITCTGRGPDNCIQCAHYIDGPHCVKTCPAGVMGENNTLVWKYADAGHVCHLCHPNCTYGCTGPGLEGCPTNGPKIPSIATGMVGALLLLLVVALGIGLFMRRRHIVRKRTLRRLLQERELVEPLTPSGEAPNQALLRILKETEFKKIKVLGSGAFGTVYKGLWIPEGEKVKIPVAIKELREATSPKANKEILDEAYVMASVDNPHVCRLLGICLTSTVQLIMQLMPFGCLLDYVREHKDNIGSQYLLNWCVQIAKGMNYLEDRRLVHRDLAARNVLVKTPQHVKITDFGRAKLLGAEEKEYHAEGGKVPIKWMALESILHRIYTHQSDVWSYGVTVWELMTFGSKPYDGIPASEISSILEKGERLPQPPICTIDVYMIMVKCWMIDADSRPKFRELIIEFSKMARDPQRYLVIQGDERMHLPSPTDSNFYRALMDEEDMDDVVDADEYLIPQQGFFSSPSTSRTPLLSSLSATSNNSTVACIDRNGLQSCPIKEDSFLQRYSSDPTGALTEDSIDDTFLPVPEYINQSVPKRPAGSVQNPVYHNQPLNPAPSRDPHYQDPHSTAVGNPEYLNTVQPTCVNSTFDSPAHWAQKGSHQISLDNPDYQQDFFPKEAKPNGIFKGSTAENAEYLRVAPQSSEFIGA
METHOD_SUMMARY: pEGFR Y1068 ELISA assay, NIH3T3/EGFR_L858R+T790M cells
CONDITION_CONTEXT: 3T3 cell line, 2 hrs compound treatment; read-out: pEGFRY1068 ELISA3T3T790M—L858R IC50
For each entry below, report its pIC50 value.
Give bare numbers, as −log10 of the molar value.

Example entries and their recorded answers appear below.
[
  {
    "COMPOUND": "C=CS(=O)(=O)N1CCc2c(Oc3nc(Nc4cnn(C)c4)nc4[nH]ccc34)cccc21",
    "TESTED_ON": "EGFR L858R+T790M (Homo sapiens, UniProt P00533, L858R/T790M)",
    "pIC50": 7.60
  },
  {
    "COMPOUND": "C=CC(=O)Nc1cccc(Oc2nc(Nc3ccn(C)n3)nc3[nH]ccc23)c1F",
    "TESTED_ON": "EGFR L858R+T790M (Homo sapiens, UniProt P00533, L858R/T790M)",
    "pIC50": 8.15
  }
]

Please look at the items below and tell me pIC50 for each one, in order.
1. C=CC(=O)N1C[C@H](COc2nc(Nc3cnn(C)c3)nc3[nH]cc(Cl)c23)[C@@H]([C@H](C)O)C1 (single isomer, unassigned)
2. C=CC(=O)N1CCO[C@H](COc2nc(Nc3cnn(C)c3)nc3[nH]ccc23)C1
3. C=CC(=O)Nc1cccc(Oc2nc(Nc3cnn(C)c3)nc3[nH]cc(C#N)c23)c1
4. C=CC(=O)N[C@H]1C[C@H](Oc2nc(Nc3cnn(C)c3)nc3[nH]cc(C#N)c23)C1
5. C=CC(=O)N[C@H]1C[C@H](Oc2nc(Nc3cnn(C)c3)nc3[nH]cc(Cl)c23)C1
6. C=CC(=O)N1C[C@@H](CC)[C@H](COc2nc(Nc3cnn(C)c3)nc3[nH]ccc23)C1 (single isomer, unassigned)
7. C=CC(=O)N[C@H]1C[C@@H](Oc2nc(Nc3cnn(C)c3)nc3[nH]cc(-c4cccnc4)c23)C1

## Output
1: 7.10; 2: 7.10; 3: 7.17; 4: 5.74; 5: 7.17; 6: 6.74; 7: 6.82

Please look at the items below and tell me pIC50 for each one, in order.
1. C=CC(=O)Nc1cccc(Oc2nc(Nc3ccn(CC)n3)nc3[nH]ccc23)c1
2. C=CC(=O)N(C)[C@H]1C[C@H](Nc2nc(Nc3cn(C)nc3C)nc3[nH]cc(Cl)c23)C1
3. C=CC(=O)N1C[C@@H](COc2nc(Nc3cnn(C)c3)nc3[nH]ccc23)[C@H](C)C1 (single isomer, unassigned)
4. C=CC(=O)Nc1cccc(Oc2nc(Nc3cnn(CC(=O)N(C)C)c3)nc3[nH]ccc23)c1
5. C=CC(=O)N1CC(Oc2nc(Nc3cnn(C)c3)nc3[nH]cc(Cl)c23)C1
6. C=CC(=O)N1C[C@@H]2[C@H](C1)[C@H]2Oc1nc(Nc2cnn(C)c2)nc2[nH]cc(Cl)c12

## Output
1: 7.96; 2: 7.57; 3: 7.24; 4: 6.17; 5: 7.43; 6: 8.05
